Where these numbers come from: patent US20240425490A1

Read-out record for RNR (RNR1:RNR2 1:1) (Homo sapiens): IC50

>  <Molecule>
Cc1ccc(F)c([C@@H](C)[C@H](NS(=O)(=O)N2CCC3(CCCCC3)CC2)c2n[nH]c(=O)o2)c1C

>  <IC50>
100 to 1000 nM

$$$$
>  <Molecule>
Cc1ccc(F)c([C@H](C)[C@H](NS(=O)(=O)N2CCC[C@](C)(O)C2)c2n[nH]c(=O)o2)c1C

>  <IC50>
1000 to 10000 nM

$$$$
>  <Molecule>
Cc1ccc(F)c([C@@H](C)[C@H](NS(=O)(=O)N2CCC(C)(C#N)CC2)c2n[nH]c(=O)o2)c1C

>  <IC50>
100 to 1000 nM

$$$$
>  <Molecule>
Cc1ccc(F)c(C(C)[C@H](NS(=O)(=O)N2CCC3(CCC(=O)N3C)CC2)c2n[nH]c(=O)o2)c1C (stereo partly drawn)

>  <IC50>
1000 to 10000 nM

$$$$
>  <Molecule>
Cc1ccc(F)c([C@@H](C)[C@H](NS(=O)(=O)N2CC3C(C2)C3(C)C)c2n[nH]c(=O)o2)c1C (stereo partly drawn)

>  <IC50>
100 to 1000 nM

$$$$

RNR (RNR1:RNR2 1:1) (Homo sapiens) / IC50 / Cc1ccc(F)c([C@@H](C)[C@H](NS(=O)(=O)N2CCC(c3nncn3C)CC2)c2n[nH]c(=O)o2)c1C : value?
10000 to 100000 nM
